Assay: chemical genetic growth profiling, strain panel (AID 1159580);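 also: tested at 20 µM; growth read once vehicle control cultures reached saturation at 30 °C; 1 = growth at the plate median or of vehicle wells; lower values mean less growth of the strain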
Conditions: S. cerevisiae deletion strains, growth OD, locus YNL250W, strain rad50, hits give low values
The whole screen tested about 5,500 compounds, of which about 2,000 (36%) were called active. Roughly 18% stayed inconclusive and do not appear here. Some of the results follow.
Overview of reported normalized growth across a group of compounds:
Just the number, please, no unit attached.

The following compounds have reported results that may help.
compound | readout.number
Nc1ccc(S(=O)(=O)NC(=O)c2ccccc2)cc1 | 1
CC(CCC(=O)O)[C@H]1CCC2C3CC[C@@H]4CC(=O)CC[C@]4(C)C3C=C[C@@]21C (some centres not stated) | 1
OC[C@H]1O[C@@H](O[C@H]2[C@H](O)[C@@H](O)[C@@H](O)O[C@@H]2CO)[C@H](O)[C@@H](O)[C@@H]1O | 1.03
NC(Cn1ccc(=O)c(O)c1)C(=O)O (configuration not stated) | 0.978
CC(=O)O[C@@H]1CC2C(C)(C)C(=O)C=C[C@]2(C)C2CC[C@]3(C)C(=CC(=O)O[C@H]3c3ccoc3)[C@@]21C (some centres not stated) | 0.994

Exercise: Indicate the recorded normalized growth value for this compound: "CC(C)=CCc1c2c(c3occ(-c4ccc(O)c(O)c4)c(=O)c3c1O)C=CC(C)(C)O2"
Solution: 0.966

Exercise: Input "O=C(O)c1ccc(S(=O)(=O)N(Cl)Cl)cc1" , output reported normalized growth.
Solution: 1.02

Exercise: Dear colleague, please send me the reported normalized growth for CN(C)C1C(=O)C(C(N)=O)=C(O)C2(O)C(=O)C3=C(O)c4c(O)ccc(Cl)c4C(C)(O)C3CC12 (configuration not stated) when you can.
Solution: 1

Exercise: Fill in reported normalized growth for this entry: "CC(=O)Oc1ccc(O)cc1"
Solution: 1.04

Exercise: Supply measured normalized growth of CC(Cc1cccc(C(F)(F)F)c1)NCCOC(=O)c1ccccc1 (configuration not stated) in your reply.
Solution: 1.03
